molecular target: Beta-2 adrenergic receptor (Homo sapiens); assay: Agonistic activity against human Beta-2 adrenergic receptor by measuring cAMP accumulation in CHO cells expressing beta3-AR; type: functional, cell-based
Sequence (P07550 whole entry, looked up): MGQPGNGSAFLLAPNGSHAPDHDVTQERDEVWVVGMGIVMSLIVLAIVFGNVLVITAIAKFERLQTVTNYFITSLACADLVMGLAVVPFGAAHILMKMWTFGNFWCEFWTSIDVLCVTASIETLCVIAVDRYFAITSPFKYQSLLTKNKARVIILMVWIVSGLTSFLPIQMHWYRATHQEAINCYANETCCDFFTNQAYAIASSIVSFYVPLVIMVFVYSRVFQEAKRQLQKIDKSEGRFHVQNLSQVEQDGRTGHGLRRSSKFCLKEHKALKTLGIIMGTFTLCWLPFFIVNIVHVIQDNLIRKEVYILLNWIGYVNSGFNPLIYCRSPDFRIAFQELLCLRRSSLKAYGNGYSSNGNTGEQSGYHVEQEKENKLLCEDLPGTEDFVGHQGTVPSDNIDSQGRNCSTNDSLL
Recorded Endpoint: Intrinsic activity
# answer = value followed by unit

// known answers, use as guide
                                   compound  meas_value
0  C[C@H](Cc1c[nH]c2c(OCC(=O)O)cccc12)NC[C@H](O)c1cccc(Cl)c1 [RAFABEGRON]         26%
1  C[C@H](Cc1c[nH]c2ccccc12)NC[C@H](O)c1cccc(Cl)c1         50%
2  CC(Cc1c[nH]c2ccccc12)NCC(O)c1cccc(Cl)c1 (mixture of isomers)         46%
3  C[C@H](Cc1ccc(OCC(=O)O)cc1)NC[C@H](O)c1cccc(Cl)c1         31%
4  COc1cccc2c(C[C@@H](C)NC[C@H](O)c3cccc(Cl)c3)c[nH]c12         46%

Reported Intrinsic activity of "C[C@H](Cc1c[nH]c2ccccc12)NC[C@@H](O)c1cccc(Cl)c1" : 23%

----------
Attribute: log10 EC50
molecular target: Beta-3 adrenergic receptor (Homo sapiens, UniProt P13945); assay: Agonism of recombinant human beta-3 adrenergic receptor assayed by measuring cAMP accumulation in CHO cells expressing beta3-AR; type: functional, cell-based
Sequence (P13945 whole entry): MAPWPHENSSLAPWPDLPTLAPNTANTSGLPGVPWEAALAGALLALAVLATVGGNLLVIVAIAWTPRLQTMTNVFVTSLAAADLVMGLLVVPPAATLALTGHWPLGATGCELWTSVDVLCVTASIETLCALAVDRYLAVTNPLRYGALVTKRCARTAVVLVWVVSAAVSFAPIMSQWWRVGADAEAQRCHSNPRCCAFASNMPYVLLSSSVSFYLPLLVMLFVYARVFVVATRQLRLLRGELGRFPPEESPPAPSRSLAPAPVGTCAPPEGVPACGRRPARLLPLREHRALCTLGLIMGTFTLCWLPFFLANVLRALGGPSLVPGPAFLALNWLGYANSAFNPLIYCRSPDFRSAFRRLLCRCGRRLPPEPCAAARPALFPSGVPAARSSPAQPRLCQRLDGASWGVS
Plainly stated, the numbers are log10 of EC50 given in nM.

// known answers, use as guide
In [3]: df
Out[3]:
                                   molecule  meas_value
0  CCCOc1cccc2c(CC(C)NC[C@H](O)c3cccc(Cl)c3)c[nH]c12 (stereo partly drawn)        1.15
1  CC(Cc1c[nH]c2cc(Cl)ccc12)NCC(O)c1cccc(Cl)c1 (stereo not drawn)        1.45
2  CC(Cc1c[nH]c2c(OCC(=O)O)cccc12)NC[C@H](O)c1cccc(Cl)c1 (stereo partly drawn)       -0.96
3  COc1cccc2c(C[C@@H](C)NC[C@H](O)c3cccc(Cl)c3)c[nH]c12       -0.44
4  C[C@@H](Cc1c[nH]c2ccccc12)NC[C@@H](O)c1cccc(Cl)c1        3.52

Reported log10 EC50 of CC(Cc1c[nH]c2c(OC(C)C)cccc12)NC[C@H](O)c1cccc(Cl)c1 (stereo partly drawn) : 0.45

----------
molecular target: Beta-3 adrenergic receptor (Homo sapiens); assay: Agonistic activity to recombinant human beta-3 adrenergic receptor expressed in CHO cells by measuring cAMP accumulation; format: functional, cell-based
Sequence (P13945 whole entry, looked up): as the sequence (P13945 whole entry) above
Recorded Endpoint: Intrinsic activity (%)
All answers are understood in %, so give the number only.

// known answers, use as guide
In [3]: df
Out[3]:
                                   molecule  unit_abbreviation  meas_value
0  C[C@H](Cc1c[nH]c2c(OCC(=O)O)cccc12)NC[C@H](O)c1cccc(Cl)c1 [RAFABEGRON]                  %         116
1  COc1cccc2c(CC(C)NCC(O)c3cccc(Cl)c3)c[nH]c12 (stereo not drawn)                  %         113
2  Cc1ccc2c(CC(C)NCC(O)c3cccc(Cl)c3)c[nH]c2c1 (stereo not drawn)                  %          95
3  CCCOc1cccc2c(CC(C)NC[C@H](O)c3cccc(Cl)c3)c[nH]c12 (stereo partly drawn)                  %         103
4  CC(Cc1c[nH]c2cc(Cl)ccc12)NCC(O)c1cccc(Cl)c1 (stereo not drawn)                  %         131
5  C[C@@H](Cc1c[nH]c2c(OCC(=O)O)cccc12)NC[C@H](O)c1cccc(Cl)c1                  %          84

Reported Intrinsic activity of CC(Cc1c[nH]c2c(OCC(=O)O)cccc12)NC[C@H](O)c1cccc(Cl)c1 (stereo partly drawn) : 124

Reported Intrinsic activity of CC(Cc1c[nH]c2c(O)cccc12)NC[C@H](O)c1cccc(Cl)c1 (stereo partly drawn) : 128

Reported Intrinsic activity of CCOc1cccc2c(CC(C)NC[C@H](O)c3cccc(Cl)c3)c[nH]c12 (stereo partly drawn) : 96

Reported Intrinsic activity of "C[C@H](Cc1c[nH]c2ccccc12)NC[C@@H](O)c1cccc(Cl)c1" : 119

Reported Intrinsic activity of CC(Cc1c[nH]c2c(OC(C)C)cccc12)NC[C@H](O)c1cccc(Cl)c1 (stereo partly drawn) : 87

Reported Intrinsic activity of CC(Cc1c[nH]c2cc(Br)ccc12)NCC(O)c1cccc(Cl)c1 (stereo not drawn) : 98

Reported Intrinsic activity of Cc1cccc2[nH]cc(CC(C)NCC(O)c3cccc(Cl)c3)c12 (stereo not drawn) : 165

Reported Intrinsic activity of COc1cccc2c(CC(C)NC[C@H](O)c3cccc(Cl)c3)c[nH]c12 (stereo partly drawn) : 114

Reported Intrinsic activity of "C[C@H](Cc1c[nH]c2ccccc12)NC[C@H](O)c1cccc(Cl)c1" : 110

Reported Intrinsic activity of COc1ccc2c(CC(C)NCC(O)c3cccc(Cl)c3)c[nH]c2c1 (stereo not drawn) : 102

----------
molecular target: Beta-3 adrenergic receptor (Homo sapiens); assay: Agonistic activity against human Beta-3 adrenergic receptor by measuring cAMP accumulation in CHO cells expressing Beta-3 adrenergic receptor; type: functional, cell-based
Recorded Endpoint: pEC50
Hey, just a heads up that pEC50 is the negative log base 10 of the concentration in molar.

// known answers, use as guide
>>> print(df.to_string())
                                   compound  recorded_endpoint  meas_value
0  CC(C)(Cc1c[nH]c2ccccc12)NCC(O)c1cccc(Cl)c1 (stereo not drawn)              pEC50        7.15
1  OC(CNCCc1c[nH]c2ccccc12)c1cccc(Cl)c1 (stereo not drawn)              pEC50        7.16

API: the following record is the query input.
Reported pEC50 of CC(Cc1c[nH]c2ccccc12)NCC(O)c1cccc(Cl)c1 (stereo not drawn) : 7.92

----------
molecular target: Beta-3 adrenergic receptor (Rattus norvegicus) (UniProt P26255); experiment: Agonistic activity against rat Beta-3 adrenergic receptor as cAMP accumulation in CHO cells expressing beta3-AR
Recorded Endpoint: Intrinsic activity (%)
All answers are understood in %, so give the number only.

// known answers, use as guide
                                   compound   recorded_endpoint  unit_abbreviation  meas_value
0  C[C@H](Cc1c[nH]c2ccccc12)NC[C@@H](O)c1cccc(Cl)c1  Intrinsic activity                  %         108
1  C[C@H](Cc1c[nH]c2c(OCC(=O)O)cccc12)NC[C@H](O)c1cccc(Cl)c1  Intrinsic activity                  %         110
2  C[C@@H](Cc1c[nH]c2ccccc12)NC[C@H](O)c1cccc(Cl)c1  Intrinsic activity                  %          96

Reported Intrinsic activity of "C[C@H](Cc1c[nH]c2ccccc12)NC[C@H](O)c1cccc(Cl)c1" : 98

Reported Intrinsic activity of "C[C@@H](Cc1c[nH]c2c(OCC(=O)O)cccc12)NC[C@H](O)c1cccc(Cl)c1" : 106

Reported Intrinsic activity of "C[C@@H](Cc1c[nH]c2ccccc12)NC[C@@H](O)c1cccc(Cl)c1" : 108

Reported Intrinsic activity of "COc1cccc2c(C[C@@H](C)NC[C@H](O)c3cccc(Cl)c3)c[nH]c12" : 147

Reported Intrinsic activity of "COc1cccc2c(C[C@H](C)NC[C@H](O)c3cccc(Cl)c3)c[nH]c12" : 121

Reported Intrinsic activity of CC(Cc1c[nH]c2ccccc12)NCC(O)c1cccc(Cl)c1 (mixture of isomers) : 107

----------
target: Beta-1 adrenergic receptor (Homo sapiens); assay: Agonistic activity against human Beta-1 adrenergic receptor by measuring cAMP accumulation in CHO cells expressing beta3-AR; type: functional, cell-based
Sequence (P08588 whole entry): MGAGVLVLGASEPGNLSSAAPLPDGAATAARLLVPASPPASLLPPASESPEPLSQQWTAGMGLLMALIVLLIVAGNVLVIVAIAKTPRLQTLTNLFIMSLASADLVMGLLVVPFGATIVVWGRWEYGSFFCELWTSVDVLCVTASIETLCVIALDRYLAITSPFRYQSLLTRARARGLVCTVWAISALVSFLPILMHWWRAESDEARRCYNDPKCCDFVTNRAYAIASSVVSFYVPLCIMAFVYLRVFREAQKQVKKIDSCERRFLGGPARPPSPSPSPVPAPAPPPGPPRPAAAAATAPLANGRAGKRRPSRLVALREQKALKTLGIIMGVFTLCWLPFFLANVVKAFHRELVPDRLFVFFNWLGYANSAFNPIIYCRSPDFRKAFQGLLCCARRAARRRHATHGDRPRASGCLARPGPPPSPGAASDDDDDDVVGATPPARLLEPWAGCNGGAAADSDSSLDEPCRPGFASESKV
Output condition met for records whose EC50 is lower than 9 nM, condition not met for records at or above 9 nM.

Would you please look over these solved cases?
In [3]: df
Out[3]:
                                   molecule     classification
0  C[C@@H](Cc1c[nH]c2ccccc12)NC[C@@H](O)c1cccc(Cl)c1  condition not met
1  C[C@@H](Cc1c[nH]c2c(OCC(=O)O)cccc12)NC[C@H](O)c1cccc(Cl)c1  condition not met
2  C[C@H](Cc1c[nH]c2c(OCC(=O)O)cccc12)NC[C@H](O)c1cccc(Cl)c1 [RAFABEGRON]      condition met
3  C[C@H](Cc1c[nH]c2ccccc12)NC[C@H](O)c1cccc(Cl)c1      condition met
4  C[C@H](Cc1c[nH]c2ccccc12)NC[C@@H](O)c1cccc(Cl)c1  condition not met

Request: Answer whether the molecule "C[C@@H](Cc1c[nH]c2ccccc12)NC[C@H](O)c1cccc(Cl)c1" has EC50 strictly less than 9 nM
Result: condition not met
